Measured values drawn from paper PMC3220188 for this set.

assay-name: in vivo
Format: in vivo, CD-1 female mice
test-parameters: mouse, 25 mg kg^−1; corrected for plasma protein binding
result-type: fT>MIC (%)

molecule | result-type | unit | result-number
NNC(=O)c1ccncc1 [Isoniazid, isoniazid, reference compound] | fT>MIC | % | 62
Cc1ccc(NC(=O)c2ccccc2)cc1Nc1nccn1-c1cc(NC2CCCC2)ncn1 [Compound 1] | fT>MIC | % | 10
c1ccc(-c2nc3cc(Nc4nccn4-c4cc(NC5CCCC5)ncn4)ccc3[nH]2)cc1 [Compound 2] | fT>MIC | % | 26
Cc1ccc(C(=O)N2CCOCC2)cc1Nc1nccn1-c1cc(NC2CC2)ncn1 [Compound 3] | fT>MIC | % | 47

---

assay-name: in vivo
Format: in vivo, CD-1 female mice
test-parameters: female, CD-1, mouse, in vivo, po, 25 mg/kg

compound | unit | bioavailability
Cc1ccc(C(=O)N2CCOCC2)cc1Nc1nccn1-c1cc(NC2CC2)ncn1 [Compound 3] | % | 50
Cc1ccc(NC(=O)c2ccccc2)cc1Nc1nccn1-c1cc(NC2CCCC2)ncn1 [Compound 1] | % | 100
c1ccc(-c2nc3cc(Nc4nccn4-c4cc(NC5CCCC5)ncn4)ccc3[nH]2)cc1 [Compound 2] | % | 100

---

Recorded MIC50 values for a group of compounds are listed next.
Tested on: M. tuberculosis H37Rv
assay-name: microbe, parasite or virus in culture
Format: cell-based, Mycobacterium tuberculosis
test-parameters: Mycobacterium tuberculosis, H37RV

smi | MIC50
Cc1ccc(NC(=O)c2ccccc2)cc1Nc1nccn1-c1cc(NC2CCCC2)ncn1 | 0.75 µM
c1ccc(-c2nc3cc(Nc4nccn4-c4cc(NC5CCCC5)ncn4)ccc3[nH]2)cc1 | 0.57 µM
Cc1ccc(NC(=O)c2cccc(NCCN)c2)cc1Nc1nccn1-c1cc(NC2CC2)ncn1 | 0.21 µM
Cc1ccc(C(=O)N2CCOCC2)cc1Nc1nccn1-c1cc(NC2CC2)ncn1 | 0.036 µM

---

assay-name: in vivo
Type: in vivo, CD-1 female mice
test-parameters: female, CD-1, mouse, in vivo, po, 25 mg/kg
result-type: AUC (ng·h/mL)

compound | result-type | result-number
Cc1ccc(C(=O)N2CCOCC2)cc1Nc1nccn1-c1cc(NC2CC2)ncn1 | AUC | 12400
c1ccc(-c2nc3cc(Nc4nccn4-c4cc(NC5CCCC5)ncn4)ccc3[nH]2)cc1 | AUC | 10600
NNC(=O)c1ccncc1 [Isoniazid, isoniazid, reference compound] | AUC | 52000
Cc1ccc(NC(=O)c2ccccc2)cc1Nc1nccn1-c1cc(NC2CCCC2)ncn1 | AUC | 23400

---

assay-name: in vivo
Assay type: in vivo, CD-1 female mice
test-parameters: mouse, 25 mg kg^−1; percentage of dosing interval with plasma levels above MIC

molecule | unit | T>MIC
Cc1ccc(NC(=O)c2ccccc2)cc1Nc1nccn1-c1cc(NC2CCCC2)ncn1 | % | 42
NNC(=O)c1ccncc1 [Isoniazid, isoniazid, reference compound] | % | 68
Cc1ccc(C(=O)N2CCOCC2)cc1Nc1nccn1-c1cc(NC2CC2)ncn1 | % | 73
c1ccc(-c2nc3cc(Nc4nccn4-c4cc(NC5CCCC5)ncn4)ccc3[nH]2)cc1 | % | 38

---

half-life values by entry
assay-name: in vivo
Assay type: in vivo, CD-1 female mice
test-parameters: female, CD-1, mouse, in vivo, po, 100 mg/kg

molecule | half-life, h
Cc1ccc(C(=O)N2CCOCC2)cc1Nc1nccn1-c1cc(NC2CC2)ncn1 | 3
CC[C@@H](CO)NCCN[C@@H](CC)CO [EMB, ethambutol, reference compound] | 1.8
